assay: NCI Yeast Anticancer Drug Screen. Data for the bub3 strain (AID 167); settings: S. cerevisiae bub3 mutant strain, at 50.0 µM, stronger effect = higher value
Compounds without any hit were thinned out: in the full panel of roughly 79,000, 15% have a hit.
Reported growth inhibition values follow for various compounds

{"columns": ["compound", "growth inhibition / %"],
 "data": [
  ["CC(C)CC(CC(C)C)NCC(C)OC(=O)c1ccc(N(C)C)cc1 (centres undefined)", 2.6],
  ["Cc1ccc2cccc(N)c2n1", 18],
  ["CN(C)/C=N/NC(=O)C(O)c1ccccc1 (centres undefined)", 34.4],
  ["CCc1ccccc1NC(=O)Nc1ccc(C(=O)O)c(O)c1", 29.8],
  ["COc1ccc2occc2c1", -0.75],
  ["CC(=O)N(/C=C\\C1=[N+](C)CCS1)c1ccccc1", 18.1],
  ["Brc1ccc(-c2ccc(Br)cc2)cc1", -19.1],
  ["CN(C)c1nc(N)nc(CS)n1", -4.15],
  ["COC1OC(COCc2ccccc2)C(OCc2ccccc2)C(OC)C1O (centres undefined)", -2.3],
  ["Oc1cccnc1I", 18],
  ["CN(C)CCN=C1Nc2ccccc2C(=O)N2CSCC12 (centres undefined)", -15.3],
  ["O=C1Nc2cc(Cl)ccc2N=CC1NC(=O)C(c1ccccc1)c1ccccc1Cl (centres undefined)", -6.8],
  ["COc1cc(NCCCCCNC(C)C)c2ncccc2c1OC", 9.05],
  ["CCOC(=O)CC1OCCO1", 2.4],
  ["Cc1ccc(N)c(C#N)c1", -5],
  ["O=C(CN1C(=O)c2ccccc2C1=O)OCC(=O)c1ccccc1", 12.9],
  ["CCO[C@@H]1C2C=CC(C2)[C@H]1[N+](=O)[O-] (some centres undefined)", 3.05],
  ["CC(C)(C)OC(=O)NCC(O)CNC(=O)OC(C)(C)C", -22.9],
  ["CC(=O)OC1C(NC(=O)OCc2ccccc2)CC(NC(=O)OCc2ccccc2)C(O)C1O (centres undefined)", -1.9],
  ["NC(=O)c1ccncc1", -1.05],
  ["COc1cc(C(Nc2ccccn2)c2cc3c(cc2O)OCO3)cc(OC)c1O (centres undefined)", 15.7],
  ["COc1ccc(/C=C/C2=CC(=O)CC(/C=C/c3ccc(OC)c(OC)c3)C2)cc1OC (centres undefined)", 58.6],
  ["CC(=O)N/N=C/c1ccc(C)cc1", -11.8],
  ["COc1ccc(-c2cc(C(=O)Nc3cccc(C(F)(F)F)c3)[nH]c(=S)n2)cc1", -14.1],
  ["COc1ccc(CCn2nccc2C)cc1", -9.4],
  ["O=C(O)C(Sc1ccccc1)c1ccccc1 (centres undefined)", -21.9],
  ["Cn1c2ccccc2c2oc(CO)cc(=O)c21", 10.4],
  ["O=C1CCSSCCC(=O)NCCCN1", -24.1],
  ["O=[N+]([O-])c1c(F)cc(F)cc1F", 2.55],
  ["COC(=O)C1(CC(=O)c2ccc(Cl)cc2Cl)NC(=S)NC(=O)C1C#N (centres undefined)", 4.45],
  ["ClC(Cl)(Cl)C(Cl)(Cl)C(Cl)(Cl)Cl", 6.75],
  ["Cc1cc(Cl)ccc1NC(=O)C1C(=O)N(c2ccc(Cl)cc2C)C(=O)/C1=N\\NC(N)=O (centres undefined)", -6.45],
  ["Cc1c2oc3c(C)ccc(C(=O)NCCN4CCN(c5ccccc5)CC4)c3nc-2c(C(=O)NCCN2CCN(c3ccccc3)CC2)c(N)c1=O", -3.9],
  ["COc1cccc2c1C(=O)c1c(O)c3c(c(O)c1C2=O)C[C@@](O)(/C(C)=N\\NC(=O)CCC(N)C(=O)O)C[C@@H]3OC1CC(N)C(O)C(C)O1 (some centres undefined) (tested in a mixture with another compound)", -25.8],
  ["CCN(CC)CCNC1=CC(=S)NC(C)(C)C1", -1.9],
  ["O=c1ncccn1C1OC(CO)C(O)C1F (centres undefined)", 3.75],
  ["CCSC1(SCC)C2(CCCCC2)C(=O)C12CCCCC2", 13.1],
  ["CCOc1ccc(N=c2ccn3ccccc3c2)cc1", 8.75],
  ["O=C1OC(=O)C(=C(c2ccccc2)c2ccccc2)C1=C(c1ccccc1)c1ccccc1", 53.1],
  ["Cc1ccc2[nH]c(C)c(C(=O)c3ccncc3)c2c1", -10.7],
  ["COC(=O)c1nc(N)nc(C(=O)OC)c1C(=O)c1ccc2ccccc2c1", 3.9],
  ["CCCCOC(=O)CC(C(=O)OCCCC)N1CCNCC1 (centres undefined)", -1.2],
  ["CC1C=CC(C)N(c2nnnn2C)N1c1nnnn1C (centres undefined)", -2.6],
  ["Cc1ccc(C2(O)CCCCC2)cc1", -8.95],
  ["Cc1nnc(-c2cn(C3OC(CO)C(O)C3O)c3ncnc(N)c23)nc1C (centres undefined)", -4.1],
  ["Cn1ccc(=S)c2ccccc21", -2.15],
  ["COc1ccc(Br)c(CN2CCc3ccccc32)c1OS(=O)(=O)c1ccc(C)cc1", 5.45],
  ["CCOC(=O)C1(C)Sc2ccccc2N=C1c1ccccc1 (centres undefined)", 26.1],
  ["COc1ccc(C)cc1NS(=O)(=O)c1ccccc1", -9.65]
]}
